- tgt: Torsin-1A-interacting protein 2 (Homo sapiens)
- experiment: LULL1 binders on small-molecule microarray, primary screen, cell lysate, human LULL1 lysate, 635/667 nm fluorescence (AID 1092);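 also: probe is lysate of COS7 cells overexpressing human LULL1; score merges per-feature 667 nm fluorescence with signal-to-noise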
- experimental_setup: hLULL1 lysate binding, 635 nm fluorescence, higher = more signal
observed_property: composite z-score
The reply should be a number, written without any unit.

The cases that follow already have their composite z-score on record.
>  <compound>
COc1cc(OC)c(C(O)C2C=CC3C(=O)NC(=O)C3N2Nc2ccc(Cl)cc2Cl)cc1Br (stereo unspecified)

>  <composite z-score>
3.34

$$$$
>  <compound>
CS(=O)(=O)CCOC(=O)C1=CC(CCCO)=CC(c2ccc(CN3CCCC3)cc2)N(Cc2cc3c(cc2Br)OCO3)C=C1C(=O)OCCS(C)(=O)=O (stereo unspecified)

>  <composite z-score>
2.5

$$$$
>  <compound>
CCCCCCC#C[Si](O[C@H](c1ccccc1)c1cn([C@H](CO)Cc2ccccc2)nn1)(C(C)C)C(C)C

>  <composite z-score>
1.7

$$$$
>  <compound>
COCCOC(=O)N1C(=O)[C@@]2(c3cc(C#CCNC(N)=O)ccc31)[C@H](C(=O)NC[C@H](O)c1ccccc1)[C@H]1C(=O)O[C@H](c3ccccc3)[C@H](c3ccccc3)N1[C@@H]2c1ccccc1OCCO

>  <composite z-score>
2.6

$$$$
>  <compound>
O=C(NCc1ccccc1)[C@@H]1c2ccccc2C(=O)N(CC23CC4CC(CC(C4)C2)C3)[C@H]1c1ccc(CO)cc1

>  <composite z-score>
2.9

$$$$

Now for the compound whose composite z-score we want.
# assay system Torsin-1A-interacting protein 2 (Homo sapiens): give composite z-score of `C=CC[C@@]1(C(=O)NCc2ccccc2)N=C(c2ccc(OCCCO)cc2)O[C@@H]1c1ccccc1N=[N+]=[N-]` 3.55

Source listed as PubChem BioAssay.
